Source: patent US20240400654A1

assaySystem: HRgpA-6H (Porphyromonas gingivalis) (UniProt P28784)
testSummary: SPR Biacore 8K; table lists HRgpA-6H as ligand, antibody as analyte
measuredParameter: Kd
Reply with a number, then the unit it belongs to.

See these solved cases before continuing.
1) H7 K222A (antibody, V domains shown) VH: QVQLQESGPGLVKPSETLSLTCTVSGFSLSIYSVHWIRQPPGKGLEWIGMIWGGGSSDYNSALKSRLTISKDTSKNQVSLKLSSVTAADTAVYYCARNGNFYAMDYWGQGTLVTVSS VL: EIVLTQSPGTLSLSPGERATLSCTASSSVSSSFLHWYQQKPGQAPQLWIYSTSNLASGIPDRFSGSGSGTDYTLTISRLEPEDFATYYCHQYHHSPYIYTFGGGTKLEIK = 0.795 nM
2) H5 K222A (antibody, V domains shown) VH: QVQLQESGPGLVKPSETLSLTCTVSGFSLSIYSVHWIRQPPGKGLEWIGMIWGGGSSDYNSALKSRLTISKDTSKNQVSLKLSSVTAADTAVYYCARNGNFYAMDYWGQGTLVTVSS VL: EIVLTQSPGTLSLSPGERATLSCTASSSVSSSFLHWYQQKPGQAPRLLIYSTSNLASGIPDRFSGSGSGTDFTLTISRLEPEDFAVYYCHQYHHSPYIYTFGGGTKLEIK = 0.068 nM
3) H8 K222A (antibody, V domains shown) VH: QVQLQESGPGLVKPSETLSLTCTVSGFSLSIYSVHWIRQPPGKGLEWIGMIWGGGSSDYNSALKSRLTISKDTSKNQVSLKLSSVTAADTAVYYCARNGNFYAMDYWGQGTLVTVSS VL: EIVLTQSPGTLSLSPGERATLSCTASSSVSSSFLHWYQQKPGQAPQLWIYSTSNLASGIPARFSGSGSGTDYTLTISRLEPEDFATYYCHQYHHSPYIYTFGGGTKLEIK = 0.57 nM

Please turn your attention to the following entry.
Provide one value: measured Kd of H14 K222A (antibody, V domains shown) VH: QVQLQESGPGLVKPSETLSLTCTVSGFSLSIYSVHWIRQPPGKGLEWLGMIWGGGSSDYNSALKSRLTISKDTSKNQVSLKLSSVTAADTAMYYCARNGNFYAMDYWGQGTLVTVSS VL: EIVLTQSPGTLSLSPGERATLSCTASSSVSSSFLHWYQQKPGQAPQLWIYSTSNLASGIPDRFSGSGSGTDYTLTISRLEPEDFAVYYCHQYHHSPYIYTFGGGTKLEIK
1.3 nM
